Provide the reported pIC50 of each item.
system: MYB mRNA; test: Splicing RT-qPCR assay, MYB canonical (CJ) and alternative (AJ) junction mRNA; type: cell-based; settings: Homo sapiens, decrease in canonical junction mRNA, A673 or K562 cells, 24 hours
pIC50: −log10 of the molar value.

*Q* # input compound: Cc1cn2cc(NC(=O)c3ccc(N4CCN[C@@H](C)C4)c4nccnc34)cc(F)c2n1 [Compound 187] ; wanted: its pIC50
*A* > 7.00

*Q* Same question for CNC1CCN(c2ccc(C(=O)Nc3cc(F)c4nc(C)cn4c3)c3nc(OCCOC)ccc23)C1 (centres unmarked) [Compound 234] please.
*A* 6.00 to 7.00

*Q* Same question for COc1nc(NC(=O)c2ccc(N3CCNCC3)c3ccnnc23)cn2cc(C)nc12 [Compound 179] please.
*A* > 7.00

*Q* Same question for COc1nc(NC(=O)c2ccc(N3C[C@@H](C)N[C@@H](C)C3)c3nccnc23)cc2cn(C)nc12 [Compound 352] please.
*A* 6.00 to 7.00

*Q* Same question for COc1ncc2c(N3C[C@H](C)N[C@@H](C)C3)ccc(C(=O)Nc3cn4cc(C)nc4c(OC)n3)c2n1 [Compound 387] please.
*A* > 7.00

*Q* Same question for CN[C@H]1CCN(c2ccc(C(=O)Nc3cc(F)c4nc(C)cn4c3)c3nnccc23)C1 [Compound 239] please.
*A* > 7.00

*Q* Same question for Cc1cn2cc(NC(=O)c3ccc(N4CCN(CCO)C5(CC5)C4)c4nccnc34)cc(F)c2n1 [Compound 369] please.
*A* 6.00 to 7.00

*Q* Same question for Cc1cn2cc(NC(=O)c3ccc(N4C[C@@H](C)N[C@@H](C(C)C)C4)c4nccnc34)cc(F)c2n1 [Compound 264, 2,2,2-trifluoroacetate] please.
*A* 5.00 to 6.00

====

system: K562 cells; assay: Cell Titer Glo 2.0 cell viability assay in K562 cells; conditions: 72 hours
measured metric: Viability

chem_smiles=Cc1cn2cc(NC(=O)c3ccc(N4CC(C)(C)NC(C)(C)C4)c4nccnc34)cc(F)c2n1 result="A (A represents <100 nM)"
chem_smiles=Cc1cn2cc(NC(=O)c3ccc(N4CCC(NC5CC5)CC4)c4ccnnc34)cc(F)c2n1 result="A (A represents <100 nM)"

====

test system: HiBiT-tagged MYB protein; assay: HiBiT protein abundance assay, MYB (K562 HiBiT knock-in cells); type: cell-based, human; conditions: 24 hours
measured metric: IC50

*Q* # input compound: Cc1cn2cc(NC(=O)c3ccc(N4CC5(CNC5)C4)c4ccnnc34)cc(F)c2n1 ; wanted: its IC50
*A* < 100 nM

*Q* Same question for Cc1cn2cc(NC(=O)c3ccc(N4C[C@@H](C)N[C@@H](C)C4)c4ncc(N(C)C)nc34)cc(F)c2n1 please.
*A* < 100 nM

*Q* Same question for COc1nc(NC(=O)c2ccc(N3C[C@@H](C)N[C@@H](C)C3)c3nccnc23)nc2cn(C)nc12 please.
*A* 1000 to 10000 nM

*Q* Same question for Cc1cn2cc(NC(=O)c3ccc(N4CC[C@@H](N(C)C)C4)c4nccnc34)cc(F)c2n1 please.
*A* 100 to 1000 nM

*Q* Same question for Cc1cn2cc(NC(=O)c3ccc(NC4CCNC4)c4nccnc34)cc(F)c2n1 (stereo not shown) please.
*A* 100 to 1000 nM

*Q* Same question for Cc1cn2cc(NC(=O)c3ccc(N4CCNCC4)c4cncnc34)cc(F)c2n1 please.
*A* < 100 nM

*Q* Same question for Cc1cn2cc(NC(=O)c3ccc(N4C[C@@H](C)N[C@@H](C)C4)c4nccnc34)cc(Cl)c2n1 please.
*A* < 100 nM

*Q* Same question for Cc1cn2cc(NC(=O)c3ccc(N(C)[C@@H]4C[C@H]5CC[C@@H](C4)N5)c4ccnnc34)cc(F)c2n1 please.
*A* 1000 to 10000 nM

*Q* Same question for COc1cnc2c(N3CC[C@@H](N(C)C)C3)ccc(C(=O)Nc3cc(F)c4nc(C)cn4c3)c2n1 please.
*A* < 100 nM

*Q* Same question for COc1cnc2c(C(=O)Nc3cc(F)c4nc(C)cn4c3)ccc(N3CCNCC3)c2n1 please.
*A* < 100 nM

*Q* Same question for Cc1cn2cc(NC(=O)c3ccc(N4CCN[C@H](C)C4)c4ccnnc34)cc(F)c2n1 please.
*A* < 100 nM

*Q* Same question for Cc1cn2cc(NC(=O)c3ccc(N4C5CNCC54)c4nccnc34)cc(F)c2n1 (stereo not shown) please.
*A* 100 to 1000 nM

*Q* Same question for Cc1cn2c(C)c(NC(=O)c3ccc(N4C[C@@H](C)N[C@@H](C)C4)c4nccnc34)cc(F)c2n1 please.
*A* 100 to 1000 nM

*Q* Same question for Cc1cnc2c(C(=O)Nc3cc(F)c4nc(C)cn4c3)ccc(N3CCNCC3)c2n1 please.
*A* 100 to 1000 nM

*Q* Same question for Cc1cn2cc(NC(=O)c3ccc(N4CCC(N(C)C)C4)c4ccnnc34)cc(F)c2n1 (stereo not shown) please.
*A* < 100 nM

*Q* Same question for COc1ccc2c(N3CCNCC3)ccc(C(=O)Nc3cc(F)c4nc(C)cn4c3)c2n1 please.
*A* < 100 nM
